Target sequence: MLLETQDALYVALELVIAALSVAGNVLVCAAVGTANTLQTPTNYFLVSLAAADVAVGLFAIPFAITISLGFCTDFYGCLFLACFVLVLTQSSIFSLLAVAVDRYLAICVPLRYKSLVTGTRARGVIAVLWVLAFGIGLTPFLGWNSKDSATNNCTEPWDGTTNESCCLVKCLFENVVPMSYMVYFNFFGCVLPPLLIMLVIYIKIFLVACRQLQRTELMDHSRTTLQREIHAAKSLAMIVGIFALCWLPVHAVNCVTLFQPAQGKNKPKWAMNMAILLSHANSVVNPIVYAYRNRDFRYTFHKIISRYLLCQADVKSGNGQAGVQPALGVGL
Measurement Name: Ki (µM)
Numbers only, in µM.

Kindly note the recorded Ki for COc1cc(/C=C\C(=O)CC(=O)/C=C/c2ccc(O)c(OC)c2)ccc1O [CTCUR, cis-trans curcumin] , which is 6.7

====

biological target: adenosine A2A receptor (Homo sapiens, UniProt P29274)
Sequence (P29274 whole entry): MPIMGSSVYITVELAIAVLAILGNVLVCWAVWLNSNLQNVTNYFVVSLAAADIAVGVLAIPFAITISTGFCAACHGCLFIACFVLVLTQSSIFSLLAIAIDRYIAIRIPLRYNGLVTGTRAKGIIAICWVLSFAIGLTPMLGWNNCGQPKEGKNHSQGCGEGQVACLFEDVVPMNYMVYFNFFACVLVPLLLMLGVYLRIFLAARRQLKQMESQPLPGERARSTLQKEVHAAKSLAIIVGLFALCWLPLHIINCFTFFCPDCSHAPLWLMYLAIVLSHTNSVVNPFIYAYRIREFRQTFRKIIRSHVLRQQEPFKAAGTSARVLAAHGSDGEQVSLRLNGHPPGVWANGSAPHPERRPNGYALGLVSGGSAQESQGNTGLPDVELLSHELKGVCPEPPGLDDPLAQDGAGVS
Measurement Name: Ki (µM)
Give bare numbers, in µM.

Kindly note the recorded Ki for COc1cc(/C=C\C(=O)CC(=O)/C=C/c2ccc(O)c(OC)c2)ccc1O [CTCUR, cis-trans curcumin] , which is 5.1
